molecular target: Peroxisome proliferator-activated receptor gamma (Homo sapiens); assay: OT_PPARg_PPARgSRC1_1440: Odyssey Thera (OT) 24-hour Protein-Complementation Assay for Peroxisome Proliferator-activated Receptor Gamma/ SRC-1 Co-activator (AID 2283388);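 note: nuclear to cytoplasmic ratio of reconstituted Venus YFP fluorescence in fixed imaged cells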
Calls of active or inactive are those of the source. Rule for the calls: active = hit-call score of the fitted dose curve at least 0.9, where 1 is the maximum; inconclusive = response in the unintended direction; inactive = score below 0.9.
Classes used: active, inactive

> print(dat)
                                recordsmiles  discretelabel
 1  O=C(NS(=O)(=O)/C=C/c1cccs1)c1ccc(F)cc1Br         active
 2                             c1ccc2occc2c1       inactive
 3                      C=CCc1ccc(OC)c(OC)c1       inactive
 4                                 NC1CCCCC1       inactive
 5                   NC(=Nc1ccccc1)Nc1ccccc1       inactive
 6  CN(C)C(=O)NC1(c2ccccc2)CCN(CCC[C@]2(c3ccc(Cl)c(Cl)c3)CCCN(C(=O)c3ccccc3)C2)CC1       inactive
 7  CO[C@@H]1COCC[C@@H]1N[C@@H]1CC[C@@](C(=O)N2CCc3ncc(C(F)(F)F)cc3C2)(C(C)C)C1       inactive
 8                                O=C1CCCCC1       inactive
 9  CC(=O)O[C@]1(C(C)=O)CC[C@H]2[C@@H]3C=C(Cl)C4=CC(=O)[C@@H]5C[C@@H]5[C@]4(C)[C@H]3CC[C@@]21C       inactive
10               CC1=C(C)S(=O)(=O)CCS1(=O)=O       inactive
11                                 CCCC(=O)O       inactive
12                           C=CCCCCCCCCCCCC       inactive
13  O=C(N[C@@H](c1ccccc1)[C@@H]1CCCCN1)c1cccc(C(F)(F)F)c1Cl       inactive
